# assayComment: compounds raising algal triacylglycerol storage – qHTS, Chlamydomonas reinhardtii, primary screen (AID 1159537);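 further: hits raise Nile Red signal meaning more stored TAG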
# recordedConditions: Chlamydomonas reinhardtii TAG, Nile Red fluorescence, 72 h; screened at 10 µM (by protocol)
The campaign covered roughly 44,000 compounds. About 370 (0.84%) were called active. How the calls were made is not given here. Many of the other results were omitted from the sample, so actives are more common in it than they were.
Possible outcomes: active, inactive

compound: CC(=O)Nc1ccc(CN2CCOCC2)cc1
qualitativeLabel: inactive

compound: CCn1c2c(c3cc([N+](=O)[O-])ccc31)CCCC2=O
qualitativeLabel: inactive

compound: Cc1nnc(NC(=O)CSc2nnnn2-c2ccc(Cl)cc2)s1
qualitativeLabel: inactive

compound: CCOc1ccc(NC(=O)C(=O)NCCc2ccc(Cl)cc2)cc1
qualitativeLabel: inactive

compound: Cc1ccc(S(=O)(=O)N2CCC(N3CCCCCC3)CC2)cc1
qualitativeLabel: inactive

compound: CCC1CCC(N2CCN(CC)CC2)CC1 (configuration not stated)
qualitativeLabel: active

compound: Cc1ccc(CNC(=O)c2ccccc2Br)cc1
qualitativeLabel: inactive

compound: COc1ccc(C(=O)N2CCC(C(=O)Nc3ccc(OCc4ccccc4)cc3)CC2)cc1
qualitativeLabel: inactive

compound: O=C(NCC1CCNCC1)C(=O)NC1CCCCC1
qualitativeLabel: inactive

compound: Clc1ccc(OCc2nc(-c3cccnc3)no2)c(Cl)c1
qualitativeLabel: inactive

compound: O=C(Nc1cccc(Cl)c1Cl)c1ccc(CN2CCOCC2)cc1
qualitativeLabel: inactive

compound: Clc1ccc(-c2nnc3ccc(NCc4ccccc4)nn23)cc1
qualitativeLabel: inactive

compound: COc1ccc(S(=O)(=O)N2CCN(c3ccccc3F)CC2)cc1OC
qualitativeLabel: inactive

compound: O=C(COc1ccc([N+](=O)[O-])cc1)Nc1cccc(Br)c1
qualitativeLabel: inactive

compound: O=C(c1ccc(C#CC2(O)CCCCC2)cc1)N1CCN(c2ccccc2Cl)CC1
qualitativeLabel: inactive

compound: CCCCOc1ccc(N2C(=O)CC(N3CCN(c4ncccn4)CC3)C2=O)cc1 (configuration not stated)
qualitativeLabel: inactive

compound: NC(=O)c1ccc(NC(=O)C(Sc2ccccc2)c2ccccc2)cc1 (configuration not stated)
qualitativeLabel: inactive

compound: Cc1ccc2oc(-c3ccc(C)c(N)c3)nc2c1
qualitativeLabel: inactive

compound: c1ccc(CCc2nc(-c3ccncc3)no2)cc1
qualitativeLabel: active

compound: O=C1CCC(=O)N1c1ccc(S(=O)(=O)c2ccc(N3C(=O)CCC3=O)cc2)cc1
qualitativeLabel: inactive

compound: CCOc1ccc(NC(=O)C(=O)NCc2ccccc2OC)cc1
qualitativeLabel: inactive

compound: Cc1ccc(C(=O)N2CCN(c3ccccc3)CC2)cc1
qualitativeLabel: inactive

compound: O=C(c1ccc(CN2CCOCC2)cc1)N(Cc1ccccc1)Cc1ccccc1
qualitativeLabel: active

compound: CCOc1ccc(-c2cc(C(=O)NCc3ccccn3)c3ccccc3n2)cc1
qualitativeLabel: inactive

compound: COCCN1C(=O)C(O)=C(C(=O)c2ccc(C)o2)C1c1cccc(Cl)c1 (configuration not stated)
qualitativeLabel: inactive

compound: COc1ccccc1CNC1CCC(C)C1 (configuration not stated)
qualitativeLabel: inactive

compound: Cc1cc(Cl)ccc1NC(=O)c1cccnc1
qualitativeLabel: inactive

compound: CCOc1ccccc1C(=O)Nc1ccc([N+](=O)[O-])cc1OC
qualitativeLabel: inactive

compound: COc1ccc(OC)c(NC(=O)CC2CCCCC2)c1
qualitativeLabel: inactive

compound: Cc1ccccc1-c1nc(-c2ccncc2)no1
qualitativeLabel: inactive

compound: CCCC1CCc2c(sc(NC(=O)C3C4C=CC(C4)C3C(=O)O)c2C(N)=O)C1 (configuration not stated)
qualitativeLabel: inactive

compound: COc1cc(C=O)ccc1OCCOc1ccc(C)cc1Br
qualitativeLabel: inactive

compound: O=[N+]([O-])c1ccccc1/C=C/CN1CCN(C/C=C/c2ccccc2)CC1
qualitativeLabel: inactive

compound: NC(=O)c1ccc2[nH]c3c(c2c1)CCCC3
qualitativeLabel: inactive

compound: Nc1cc(-c2ccccc2)nn1-c1ccccc1
qualitativeLabel: inactive

compound: CCN(CC)CCCOc1ccc(C)cc1[N+](=O)[O-]
qualitativeLabel: inactive

compound: Cc1cc(C)c(NC(=O)c2ccc(F)cc2)c(C)c1
qualitativeLabel: inactive

compound: Clc1ccc(OCCN2CCCCCC2)cc1
qualitativeLabel: inactive

compound: Cc1ccc(C(=O)Nc2cccc(O)c2)cc1S(=O)(=O)N1CCC(C)CC1
qualitativeLabel: inactive

compound: CCCCOc1ccc(N2C(=O)CC(N3CCN(c4ccccn4)CC3)C2=O)cc1 (configuration not stated)
qualitativeLabel: inactive

compound: O=C(/C=C/c1ccc(-c2ccccc2Cl)o1)c1ccco1
qualitativeLabel: inactive

compound: Clc1cc(Br)ccc1OCCCCN1CCOCC1
qualitativeLabel: active
